Where do the numbers come from? From paper PMC7891696.

# subject_of_test: Phh-GluCl (Pediculus humanus humanus, UniProt A0A894TL71)
# Sequence (A0A894TL71 entry or part of it): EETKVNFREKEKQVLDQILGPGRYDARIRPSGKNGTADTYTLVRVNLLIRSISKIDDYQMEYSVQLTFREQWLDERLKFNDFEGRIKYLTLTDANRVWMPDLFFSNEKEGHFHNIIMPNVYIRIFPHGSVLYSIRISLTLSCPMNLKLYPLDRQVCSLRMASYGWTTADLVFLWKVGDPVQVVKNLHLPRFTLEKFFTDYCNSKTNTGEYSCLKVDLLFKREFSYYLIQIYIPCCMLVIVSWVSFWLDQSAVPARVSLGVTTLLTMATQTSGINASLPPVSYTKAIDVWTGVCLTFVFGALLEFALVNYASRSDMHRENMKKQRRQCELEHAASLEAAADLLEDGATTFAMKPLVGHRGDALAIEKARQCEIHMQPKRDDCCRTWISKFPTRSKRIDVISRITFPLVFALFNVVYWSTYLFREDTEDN
# method_description: Two-electrode voltage-clamp on Xenopus laevis oocytes expressing Phh-GluCl
# Assay type: cell-based

{"molecule": "N[C@@H](CCC(=O)O)C(=O)O [glutamate]", "EC50, µM": 9.3}

====

# subject_of_test: Phh-RDL (Pediculus humanus humanus, UniProt A0A894T8E6)
# Sequence (A0A894T8E6 entry or part of it): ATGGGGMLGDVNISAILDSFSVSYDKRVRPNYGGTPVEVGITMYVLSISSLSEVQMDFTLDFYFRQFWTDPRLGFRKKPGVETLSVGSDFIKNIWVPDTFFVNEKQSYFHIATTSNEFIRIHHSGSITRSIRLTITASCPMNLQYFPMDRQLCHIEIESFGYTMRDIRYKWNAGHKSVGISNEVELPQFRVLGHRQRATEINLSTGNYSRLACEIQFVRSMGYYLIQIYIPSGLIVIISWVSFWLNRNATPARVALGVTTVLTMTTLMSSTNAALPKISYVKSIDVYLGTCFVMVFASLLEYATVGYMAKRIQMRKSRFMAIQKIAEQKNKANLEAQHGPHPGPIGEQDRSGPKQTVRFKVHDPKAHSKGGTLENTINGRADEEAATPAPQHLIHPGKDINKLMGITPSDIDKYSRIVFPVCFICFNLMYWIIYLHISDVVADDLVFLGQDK
# method_description: Two-electrode voltage-clamp on Xenopus laevis oocytes expressing Phh-RDL
# Assay type: cell-based
pIC50: −log10 of the molar value.

{"compound": "N#Cc1nn(-c2c(Cl)cc(C(F)(F)F)cc2Cl)c(N)c1[S+]([O-])C(F)(F)F (stereo not shown)", "subject_of_test": "Phh-RDL (Pediculus humanus humanus, UniProt A0A894T8E6)", "pIC50": 6.86}
